The reported numbers originate from patent US9255090B2.

- system.tested: hCRTH2 receptor (Homo sapiens (Human))
- Sequence (Q9Y5Y4 whole entry): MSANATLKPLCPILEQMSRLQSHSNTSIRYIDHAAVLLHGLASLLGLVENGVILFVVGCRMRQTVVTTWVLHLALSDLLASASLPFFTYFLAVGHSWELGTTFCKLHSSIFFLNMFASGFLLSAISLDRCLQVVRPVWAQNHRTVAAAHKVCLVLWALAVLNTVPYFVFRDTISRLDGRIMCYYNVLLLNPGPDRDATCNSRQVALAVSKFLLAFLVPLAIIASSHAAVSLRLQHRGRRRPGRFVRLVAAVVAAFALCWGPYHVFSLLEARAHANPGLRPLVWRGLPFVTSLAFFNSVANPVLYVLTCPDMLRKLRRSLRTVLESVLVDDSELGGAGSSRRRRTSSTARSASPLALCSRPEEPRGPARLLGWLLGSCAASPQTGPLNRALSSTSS
pIC50: −log10 of the molar value.
Threshold rule: pIC50 greater than or equal to 8 is MET; below that, NOT MET.

Query :: Would you say COc1ccc(CC(=O)O)cc1-c1ccc(F)c2c1CN(C(=O)COCc1ccccc1Cl)CC2 shows pIC50 at minimum 8?
Result :: MET

Query :: Threshold query (pIC50 >= 8) on O=C(O)COc1ccc(F)cc1-c1cccc2c1CN(C(=O)OCc1ccccc1)CC2
Result :: NOT MET

Query :: Item COc1ccc2[nH]cc(CCC(=O)N3CCc4c(F)ccc(-c5cc(CC(=O)O)ccc5OC)c4C3)c2c1 with pIC50 of 8 or above?
Result :: NOT MET

Query :: Reported pIC50 reaches at least 8 for O=C(O)Cc1cccc(-c2ccc(F)c3c2CN(C(=O)OCc2ccccc2)CC3)c1 ?
Result :: NOT MET

Query :: Does the reported pIC50 for COc1cc(CC(=O)O)ccc1-c1ccc(F)c2c1CN(C(=O)CC(C)(C)c1ccccc1)CC2 fall at or above the 8 mark?
Result :: MET

Query :: Hi team, for COc1ccc(CC(=O)O)cc1-c1ccc(F)c2c1CCN(C(=O)CCc1ccccc1)C2 , is the recorded pIC50 at or above 8?
Result :: NOT MET

Query :: Threshold query (pIC50 >= 8) on COc1ccc(CC(=O)O)cc1-c1ccc(F)c2c1CCN(C(=O)[C@@H]1C[C@H]1c1ccccc1)C2
Result :: NOT MET

Query :: Determine whether measured pIC50 meets or exceeds 8 for COc1cccc(CC(=O)O)c1-c1ccc(F)c2c1CN(C(=O)OCc1ccccc1)CC2
Result :: NOT MET

Query :: Is pIC50 for COc1ccc(/C=C/C(=O)N2CCc3c(F)ccc(-c4cc(CC(=O)O)ccc4OC)c3C2)cn1 at or above 8?
Result :: NOT MET

Query :: Quick check, pIC50 >= 8? CCOc1ccc(CC(=O)O)cc1-c1ccc(F)c2c1CN(C(=O)CC(C)c1ccccc1F)CC2 (racemic)
Result :: MET

Query :: Hello, I need to know if O=C(O)Cc1cc2c(c(-c3ccc(F)c4c3CN(C(=O)OCc3ccccc3)CC4)c1)OCCO2 has measured pIC50 not below 8. Thanks!
Result :: NOT MET

Query :: Entry Cc1cccc(CCC(=O)N2CCc3c(F)ccc(-c4cc(CC(=O)O)ccc4OC(C)C)c3C2)n1 : is its pIC50 no less than 8?
Result :: MET

Query :: Reported pIC50 at or above 8? CCOc1cc(CC(=O)O)ccc1-c1ccc(F)c2c1CN(C(=O)NCc1cccc(F)c1)CC2
Result :: NOT MET

Query :: Is pIC50 for CCC(CC(=O)N1CCc2c(F)ccc(-c3cc(CC(=O)O)ccc3OC)c2C1)c1ccccc1 (racemic) at or above 8?
Result :: NOT MET

Query :: Please check the record COc1ccc(CC(=O)O)cc1-c1ccc(Cl)c2c1CN(C(=O)CCc1c(C)[nH]c3ccccc13)CC2 and state if its pIC50 is at or above 8.
Result :: NOT MET

Query :: Dear colleague, could you confirm whether CCOc1cc(CC(=O)O)ccc1-c1ccc(F)c2c1CN(C(=O)CC1OCCc3ccccc31)CC2 (stereo not drawn) has pIC50 at or above 8?
Result :: MET

Query :: Tell me whether pIC50 is at least 8 here: COc1ccc(CC(=O)O)cc1-c1ccc(F)c2c1CN(C(=O)CC1COc3ccccc3C1)CC2 (racemic)
Result :: MET

Query :: Hello, I need to know if CN(C)c1ccc(CC(=O)O)cc1-c1ccc(F)c2c1CN(C(=O)OCc1ccccc1)CC2 has measured pIC50 not below 8. Thanks!
Result :: MET

Query :: Is pIC50 for CCOc1cc(CC(=O)O)ccc1-c1ccc(F)c2c1CN(C(=O)NCc1ccccc1OC)CC2 at or above 8?
Result :: MET

Query :: Reported pIC50 at or above 8? CCOc1ccc(CC(=O)O)cc1-c1ccc(F)c2c1CN(C(=O)CC(C)c1ccc(F)cc1)CC2 (racemic) [Example 278]
Result :: MET

Query :: Threshold query (pIC50 >= 8) on CCOc1ccc(CC(=O)O)cc1-c1ccc(F)c2c1CN(C(=O)OCCC(C)(C)OC)CC2
Result :: NOT MET
